Tested on: ACHN renal
assayText: NCI tumour cell line growth inhibition, 48 h
measuredParameter: TGI

Hey, can you go through the list below and give me TGI for every item?
1. O=C(CCC(=O)Nc1ccc(Cl)cc1)CC(=O)c1ccc(F)cc1
2. COc1ccc(/C=C2\CSC/C(=C\c3ccc(OC)c(OC)c3OC)C2=O)c(OC)c1OC

**Result**
> 100 µM
52.9 µM

----------
Tested on: LOX IMVI melanoma
assayText: NCI tumour cell line growth inhibition, 48 h; in the data active = GI50 below about 0.43 µM; inactive = the rest
Allowed answers: TRUE for active, FALSE for inactive

**Query** Per the assay record, what outcome was assigned to "CS(=O)(=O)CCNCc1ccc(-c2ccc3ncnc(Nc4ccc(OCc5cccc(C(F)(F)F)c5)cc4)c3c2)o1" ?
**Result** FALSE

**Query** Assay result, entry CC(ONC(=O)c1cc(C(F)(F)F)cc(C(F)(F)F)c1)C(=O)Nc1ccc(Cl)cc1 (stereo not given) — outcome?
**Result** FALSE

**Query** What classification did "CN1CCN(c2ccc3nc(-c4cc(C(C)(C)C)c(O)c(C(C)(C)C)c4)[nH]c3c2)CC1" end up with in this test?
**Result** FALSE

**Query** For this compound, state the assay outcome: "COc1ccc(O)c(C(=O)c2ccc(C(=O)O[C@@H]3CCCNC[C@H]3NC(=O)c3ccncc3)cc2)c1F"
**Result** FALSE

**Query** So what was the verdict on "CCC[C@H](N[C@@H]1CCc2cc(F)cc(F)c2C1)C(=O)Nc1cn(C(C)(C)CNCC(C)(C)C)cn1" in this test?
**Result** FALSE

**Query** // param item: "COc1ccc(-c2n[nH]nc2-c2csc3ccccc23)cc1OC" ; yields the recorded call
**Result** FALSE

**Query** Dear colleague, could you share the recorded outcome for COC(CCP(=O)(c1ccccc1)c1ccccc1)(C(=O)c1ccccc1)c1ccccc1 (stereo not given) when you have a moment?
**Result** FALSE

**Query** I'd appreciate the recorded outcome for "COc1cnc2c(c1)C(=O)c1c-2n(CCCn2ccnc2)c(=O)c2cc(Cl)ccc12" from this test.
**Result** TRUE

**Query** Test call for this compound, please: "COc1cccc(/C=N\Nc2ccc([N+](=O)[O-])cn2)c1O"
**Result** FALSE

**Query** Test call, this compound: "O=C(COc1cccc(/C=C2\COc3ccccc3C2=O)c1)Nc1nccs1"
**Result** FALSE

Origin of values: PubChem BioAssay (NCI)
